ASSAY REMARKS: Inhibition of bovine liver beta-glucosidase assessed as reduction of p-nitrophenol release using p-nitrophenyl-glycoside as substrate by spectrophotometric analysis
Assay type: tissue-based, Bos taurus
VALUE KIND: pIC50
Numbers only, as −log10 of the molar value.

Query block: Let me know recorded pIC50 for O[C@@H]1[C@@H](O)CN[C@H]1c1ccc(-c2ccccc2)cc1 , thanks.
Result block: 3.34

====

ASSAY REMARKS: Inhibition of bovine liver beta-galactosidase assessed as reduction of p-nitrophenol release using p-nitrophenyl-glycoside as substrate by spectrophotometric analysis
Parameters: species or system Bos taurus
Hi there, I'd appreciate the recorded pIC50 for every entry that follows.
Give bare numbers, as −log10 of the molar value.

Here's what some known entries look like.
>>> recorded_result("O[C@@H]1[C@@H](O)CN[C@H]1c1ccc(-c2ccccc2)cc1")
4.08
>>> recorded_result("O[C@H]1[C@H](CCCc2ccccc2)NC[C@@H]1O")
3.18

Count: 5. Required value per item: pIC50.
1. Cc1ccc([C@H]2NC[C@@H](O)[C@@H]2O)cc1
2. O[C@H]1[C@H](O)CN[C@@H]1c1ccccc1
3. Cc1ccc([C@@H]2NC[C@H](O)[C@H]2O)cc1
4. O[C@H]1[C@H](O)CN[C@@H]1CCCc1ccccc1
5. O[C@H]1[C@H](O)CN[C@@H]1c1ccc(-c2ccccc2)cc1

Result block:
[3.22, 3.36, 3.33, 3.24, 3.48]

====

Hi there, I'd appreciate the recorded inhibition for every entry that follows.
Tested on: Aspergillus niger
ASSAY REMARKS: Inhibition of Aspergillus niger amyloglucosidase assessed as reduction of p-nitrophenol release using p-nitrophenyl-glycoside as substrate at 1000 uM by spectrophotometric analysis
Give bare numbers, in %.

Here's what some known entries look like.
>>> recorded_result("O[C@@H]1[C@@H](O)CN[C@H]1c1ccc(F)cc1")
0
>>> recorded_result("O[C@H]1[C@H](CCCc2ccccc2)NC[C@@H]1O")
0
>>> recorded_result("OC[C@@H]1NCC(O)C1O (single isomer, unassigned)")
25.6
>>> recorded_result("Cc1ccc([C@@H]2NC[C@H](O)[C@H]2O)cc1")
2.3
>>> recorded_result("O[C@H]1[C@H](O)CN[C@@H]1c1ccccc1")
2
>>> recorded_result("O[C@H]1[C@H](O)CN[C@@H]1c1ccc(F)cc1")
0
>>> recorded_result("O[C@H]1[C@H](O)CN[C@@H]1c1ccc(-c2ccccc2)cc1")
0
>>> recorded_result("O[C@@H]1[C@@H](O)CN[C@H]1c1ccccc1")
0

Count: 3. Required value per item: inhibition.
1. Cc1ccc([C@H]2NC[C@@H](O)[C@@H]2O)cc1
2. O[C@H]1[C@H](O)CN[C@@H]1CCCc1ccccc1
3. O[C@@H]1[C@@H](O)CN[C@H]1c1ccc(-c2ccccc2)cc1

Result block:
1. 0
2. 0
3. 0

====

Hi there, I'd appreciate the recorded inhibition for every entry that follows.
TARGET UNDER TEST: Lysosomal alpha-glucosidase (Homo sapiens) (UniProt P10253)
ASSAY REMARKS: Inhibition of human lysosomal alpha-glucosidase assessed as reduction of p-nitrophenol release using p-nitrophenyl-glycoside as substrate at 1000 uM by spectrophotometric analysis
PROTOCOL CONDITIONS: Lysosome
Give bare numbers, in %.

Here's what some known entries look like.
>>> recorded_result("O[C@@H]1[C@@H](O)CN[C@H]1c1ccc(-c2ccccc2)cc1")
15.6
>>> recorded_result("O[C@H]1[C@H](O)CN[C@@H]1c1ccc(-c2ccccc2)cc1")
2.9
>>> recorded_result("O[C@H]1[C@H](O)CN[C@@H]1c1ccccc1")
29
>>> recorded_result("Cc1ccc([C@@H]2NC[C@H](O)[C@H]2O)cc1")
4.8

Count: 5. Required value per item: inhibition.
1. O[C@@H]1[C@@H](O)CN[C@H]1c1ccc(F)cc1
2. O[C@H]1[C@H](O)CN[C@@H]1CCCc1ccccc1
3. Cc1ccc([C@H]2NC[C@@H](O)[C@@H]2O)cc1
4. O[C@H]1[C@H](O)CN[C@@H]1c1ccc(F)cc1
5. O[C@H]1[C@H](CCCc2ccccc2)NC[C@@H]1O

Result block:
[30, 26.5, 15, 13.4, 27.8]

Query block: Let me know recorded inhibition for O[C@@H]1[C@@H](O)CN[C@H]1c1ccccc1 , thanks.
Result block: 24.6
